All values here come from patent US11401286B2.

Biological target: PDE4D7 (Homo sapiens (Human), UniProt Q08499)
Sequence (Q08499 other isoform, or with tags, fused parts or gaps): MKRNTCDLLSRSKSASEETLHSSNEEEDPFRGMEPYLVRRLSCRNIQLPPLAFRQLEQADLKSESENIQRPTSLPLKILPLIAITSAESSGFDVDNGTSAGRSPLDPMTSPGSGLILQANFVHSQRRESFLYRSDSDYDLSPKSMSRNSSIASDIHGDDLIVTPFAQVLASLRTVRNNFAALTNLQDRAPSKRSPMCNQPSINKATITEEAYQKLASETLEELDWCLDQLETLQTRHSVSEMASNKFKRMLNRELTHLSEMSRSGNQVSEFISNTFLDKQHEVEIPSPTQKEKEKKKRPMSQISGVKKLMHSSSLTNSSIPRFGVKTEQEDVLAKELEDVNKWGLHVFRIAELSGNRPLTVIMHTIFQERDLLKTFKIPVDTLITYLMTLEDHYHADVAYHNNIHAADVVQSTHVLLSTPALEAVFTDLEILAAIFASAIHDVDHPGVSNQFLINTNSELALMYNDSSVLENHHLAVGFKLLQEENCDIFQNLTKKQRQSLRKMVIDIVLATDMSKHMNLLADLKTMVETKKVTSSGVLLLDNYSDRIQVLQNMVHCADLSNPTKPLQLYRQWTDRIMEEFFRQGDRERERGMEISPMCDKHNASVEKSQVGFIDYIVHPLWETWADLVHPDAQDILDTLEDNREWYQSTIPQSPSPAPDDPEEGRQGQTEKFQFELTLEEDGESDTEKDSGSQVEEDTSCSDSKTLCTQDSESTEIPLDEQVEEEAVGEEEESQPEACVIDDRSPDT
Settings: read-out: PDE4D7 IC50; PDE4D7 without asterisk
Counter-ions that a name gives are not always drawn.
Hi there, I'd appreciate the recorded IC50 for every entry that follows.

In: Quick one: IC50 of CCNC(=O)Cc1ccc(Nc2nc(-c3ccc(Cl)s3)nc(C)c2CC)cc1 [Example 309] ?
Out: < 1000 nM

In: Request: NC(=O)Cc1ccc(Nc2nc(-c3cccc(Cl)c3)nc3c2CCC3)cc1 [Example 21]
Out: > 1000 nM

In: Request: NC(=O)Cc1ccc(Cc2cc(C3CC3)nc(-c3cccc(Cl)c3)n2)cc1 [Example 209]
Out: > 1000 nM

In: Request: N#CCc1ccc(Nc2nc(-c3cccc(Cl)c3)nc3c2CCC3)cc1 [Example 19]
Out: > 1000 nM

In: Request: CC(Oc1ccc(Nc2cc(-c3cccc(Cl)c3)nc3c2CCC3)cc1)C(N)=O (centres unmarked) [Example 116, hydrochloride]
Out: > 1000 nM

In: Request: CCc1cc(Nc2ccc(C(C)(C)C(N)=O)cc2)nc(-c2cccc(Cl)c2)n1 [Example 187]
Out: > 1000 nM

In: Request: CCc1nc(Nc2ccc(CCO)cc2)cc(-c2cccc(Cl)c2)n1 [Example 264]
Out: < 1000 nM

In: Request: NC(=O)Cc1ccc(Cc2nc(-c3cccc(Cl)c3)nc3c2S(=O)(=O)CCC3)cc1 [Example 277]
Out: < 1000 nM

====

Target: PDE4D7 (Homo sapiens (Human), UniProt Q08499)
Conditions: read-out: PDE4D7 IC50
Counter-ions that a name gives are not always drawn.
Hi there, I'd appreciate the recorded IC50 for every entry that follows.

In: Give the reported IC50 for CN1CCN(c2cc(Nc3ccc(CC(N)=O)cc3)c3c(n2)CCC3)CC1 [Example 253, hydrochloride] (system: PDE4D7 (Homo sapiens (Human), UniProt Q08499)).
Out: > 1 µM

In: Request: CCc1cc(Oc2ccc(CC(N)=O)cc2)nc(-c2cccc(Cl)c2)n1
Out: > 1 µM

In: Request: CCc1nc(Nc2ccc(CO)cc2)nc(-c2cccc(Cl)c2)n1
Out: < 1 µM

In: Request: NC(=O)Cc1ccc(S(=O)(=O)c2cc(-c3cccc(Cl)c3)nc3c2CCC3)cc1
Out: > 1 µM

In: Request: OCCc1ccc(Nc2cc(-c3cccc(Cl)c3)nc3c2CCC3)nc1 [Example 92, hydrochloride]
Out: > 1 µM

In: Request: CCc1cc(Cc2ccc(CCO)cc2)nc(-c2cccc(Cl)c2)n1
Out: < 1 µM

In: Request: CN(C)CCc1ccc(Nc2cc(-c3cccc(Cl)c3)nc3c2CCC3)cc1 [Example 105, hydrochloride]
Out: > 1 µM

In: Request: COC(=O)Cc1ccc(Nc2cc(-c3cccc(Cl)c3)nc3c2CCC3)cn1 [Example 89, hydrochloride]
Out: > 1 µM

====

Hi there, I'd appreciate the recorded IC50 for every entry that follows.
Target: PDE4D7 (Homo sapiens (Human), UniProt Q08499)
Settings: read-out: PDE4D7 IC50; PDE4D7 without asterisk
Where a name gives a salt, the structure may show the parent alone.

In: Quick one: IC50 of NC(=O)Cc1ccc(Nc2cc(C3CC3)nc(-c3cccc(Cl)c3)n2)cc1 ?
Out: < 1000 nM

In: Request: CCc1cc(Oc2ccc(CC(N)=O)cn2)nc(-c2cccc(Cl)c2)n1
Out: > 1000 nM

In: Request: NC(=O)Cc1ccc(Nc2cc(-c3ccc(Cl)cc3)nc3c2CCC3)cc1 [Example 148, hydrochloride]
Out: > 1000 nM

In: Request: COCCc1ccc(Nc2cc(-c3cccc(Cl)c3)nc3c2CCC3)cc1 [Example 86, hydrochloride]
Out: > 1000 nM

In: Request: CCc1nc(Nc2ccc(C(N)=O)cc2)nc(-c2cccc(Cl)c2)n1
Out: < 1000 nM

In: Request: O=S1(=O)CCCc2nc(C3CCCC3)nc(Nc3ccc(CCCO)cc3)c21
Out: < 1000 nM

In: Request: CCc1cc(Nc2ccc(Cn3cc(Cl)cn3)cc2)nc(-c2cccc(Cl)c2)n1
Out: > 1000 nM

In: Request: OCCc1ccc(Nc2cc(C3CC3)nc(-c3cccc(Cl)c3)n2)nc1
Out: > 1000 nM

In: Request: Clc1cccc(-c2cc(Nc3ccc(Cc4ncco4)cc3)c3c(n2)CCC3)c1 [Example 114, hydrochloride]
Out: > 1000 nM

In: Request: NC(=O)Cc1ccc(Nc2cc(N3CCCC3)nc3c2CCC3)cc1 [Example 236, hydrochloride]
Out: > 1000 nM

In: Request: NC(=O)Cc1ccc(Cc2nc(-c3cccc(Cl)c3)nc3c2CCC3)cc1
Out: > 1000 nM

In: Request: NC(=O)Cc1ccc(Nc2cc(-c3ccco3)nc3c2CCC3)cc1 [Example 240, hydrochloride]
Out: > 1000 nM

In: Request: COC(=O)Cc1ccc(Nc2cc(N3CCCC3)nc3c2CCC3)cc1 [Example 237, hydrochloride]
Out: > 1000 nM

In: Request: CCc1c(C)nc(-c2ccc(Cl)s2)nc1Nc1ccc(B(O)O)cc1
Out: < 1000 nM

In: Request: O=C(O)Cc1ccc(Nc2nc(-c3ccc(Cl)s3)nc(C3CC3)n2)cc1
Out: > 1000 nM

In: Request: CCc1nc(Nc2ccc(CCOC)cc2)nc(-c2cccc(Cl)c2)n1
Out: < 1000 nM

In: Request: NC(=O)Cc1ccc(Cc2cc(C(F)(F)F)nc(C3CCCC3)n2)cc1
Out: > 1000 nM
